Molecular target: FKBP51 / FRB ternary complex (Homo sapiens (Human), UniProt P42345+Q13451)
Sequence (Q13451 whole entry): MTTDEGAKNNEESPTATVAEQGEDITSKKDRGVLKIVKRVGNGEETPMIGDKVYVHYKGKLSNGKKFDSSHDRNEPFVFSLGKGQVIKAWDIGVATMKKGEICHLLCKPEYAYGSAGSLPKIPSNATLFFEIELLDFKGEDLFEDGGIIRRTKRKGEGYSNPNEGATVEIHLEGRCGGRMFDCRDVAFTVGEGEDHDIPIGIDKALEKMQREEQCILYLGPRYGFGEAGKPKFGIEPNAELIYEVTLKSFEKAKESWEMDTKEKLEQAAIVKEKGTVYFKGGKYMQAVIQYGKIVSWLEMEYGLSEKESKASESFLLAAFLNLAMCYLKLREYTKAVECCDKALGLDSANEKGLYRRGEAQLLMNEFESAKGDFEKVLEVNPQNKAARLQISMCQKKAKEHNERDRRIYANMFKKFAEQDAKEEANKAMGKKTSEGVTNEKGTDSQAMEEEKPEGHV
Sequence (P42345 2012-2144): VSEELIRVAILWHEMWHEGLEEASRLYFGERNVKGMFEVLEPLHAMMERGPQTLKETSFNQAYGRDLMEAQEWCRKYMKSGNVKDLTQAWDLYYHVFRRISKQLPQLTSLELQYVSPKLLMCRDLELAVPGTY
Assay: SPR assay to characterize ternary complex formation with FKBP51 (FRB binding to rapalog-saturated FKBP51)
Conditions: FRB dilutions with 100 nM rapalog on immobilized FKBP51
Test readout: Kd

>>> result("CO[C@@H]1C[C@H](C[C@@H](C)[C@@H]2CC(=O)[C@H](C)/C=C(\\C)[C@@H](O)[C@@H](OC)C(=O)[C@H](C)C[C@H](C)/C=C/C=C/C=C(\\C)[C@@H](OCCC3CCS(=O)(=O)C3)C[C@@H]3CC[C@@H](C)[C@@](O)(O3)C(=O)C(=O)N3CCCC[C@H]3C(=O)O2)CC[C@H]1O (stereo partly shown)")
"> 800 nM"
>>> result("COC1CC(CC(C)C2CC(=O)C(C)C=C(C)C(O)C(OC)C(=O)C(C)CC(C)C=CC=CC=C(C)C(OCC3CCC3)CC3CCC(C)C(O)(O3)C(=O)C(=O)N3CCCCC3C(=O)O2)CCC1O (stereo not shown) [Compound 37]")
"> 800 nM"
>>> result("COC1CC(CC(C)C2CC(=O)C(C)C=C(C)C(O)C(OC)C(=O)C(C)CC(C)C=CC=CC=C(C)C(OCC3CC3)CC3CCC(C)C(O)(O3)C(=O)C(=O)N3CCCCC3C(=O)O2)CCC1OCCCO (stereo not shown) [Compound 43]")
"< 300 nM"
>>> result("CO[C@@H]1C[C@H](C[C@@H](C)[C@@H]2CC(=O)[C@H](C)/C=C(\\C)[C@@H](O)[C@@H](OC)C(=O)[C@H](C)C[C@H](C)/C=C/C=C/C=C(\\C)[C@@H](NS(=O)(=O)CC3CCCC3)C[C@@H]3CC[C@@H](C)[C@@](O)(O3)C(=O)C(=O)N3CCCC[C@H]3C(=O)O2)CC[C@H]1O")
"> 800 nM"
>>> result("COCCOCCS(=O)(=O)NC1CC2CCC(C)C(O)(O2)C(=O)C(=O)N2CCCCC2C(=O)OC(C(C)CC2CCC(OCCCS(C)(=O)=O)C(OC)C2)CC(=O)C(C)C=C(C)C(O)C(OC)C(=O)C(C)CC(C)C=CC=CC=C1C (mixture of isomers)")
"300 to 800 nM"
>>> result("CO[C@@H]1C[C@H](C[C@@H](C)[C@@H]2CC(=O)[C@H](C)/C=C(\\C)[C@@H](O)[C@@H](OC)C(=O)[C@H](C)C[C@H](C)/C=C/C=C/C=C(\\C)[C@H](NS(=O)(=O)CC3CCOCC3)C[C@@H]3CC[C@@H](C)[C@@](O)(O3)C(=O)C(=O)N3CCCC[C@H]3C(=O)O2)CC[C@H]1O")
"> 800 nM"
>>> result("COC1CC(CC(C)C2CC(=O)C(C)C=C(C)C(O)C(OC)C(=O)C(C)CC(C)C=CC=CC=C(C)C(OCC3CC3)CC3CCC(C)C(O)(O3)C(=O)C(=O)N3CCCCC3C(=O)O2)CCC1OCCO (stereo not shown)")
"> 800 nM"
>>> result("COC1CC(CC(C)C2CC(=O)C(C)C=C(C)C(O)C(OC)C(=O)C(C)CC(C)C=CC=CC=C(C)C(OC3CC3)CC3CCC(C)C(O)(O3)C(=O)C(=O)N3CCCCC3C(=O)O2)CCC1OCCCO (stereo not shown) [Compound 52]")
"> 800 nM"
>>> result("COC1CC(CC(C)C2CC(=O)C(C)C=C(C)C(O)C(OC)C(=O)C(C)CC(C)C=CC=CC=C(C)C(OCCC3COC3)CC3CCC(C)C(O)(O3)C(=O)C(=O)N3CCCCC3C(=O)O2)CCC1OCCO (stereo not shown)")
"> 800 nM"
>>> result("COCCOCCS(=O)(=O)N[C@@H]1C[C@@H]2CC[C@@H](C)[C@@](O)(O2)C(=O)C(=O)N2CCCC[C@H]2C(=O)O[C@H]([C@H](C)C[C@@H]2CC[C@@H](O)[C@H](OC)C2)CC(=O)[C@H](C)/C=C(\\C)[C@@H](O)[C@@H](OC)C(=O)[C@H](C)C[C@H](C)/C=C/C=C/C=C/1C")
"300 to 800 nM"
